Where do these numbers come from? They come from patent US7541364B2.

Known Ki of a selection of compounds
Target: UniProt P41144
Conditions: read-out: antagonist activity apparent Ki (nM ± SD) κ
Just the number please, in nM, no unit attached.

Known Ki results, listed for orientation:
>>> recorded_value("Oc1ccc2c3c1O[C@H]1c4ncc(-c5ccc(Cl)cc5)cc4C[C@@]4(O)[C@@H](C2)N(CC2CC2)CC[C@]314")
11.2
>>> recorded_value("Oc1ccc2c3c1O[C@H]1c4ncc(-c5ccc(Cl)cc5)cc4C[C@H]4[C@@H](C2)N(CC2CC2)CC[C@]314")
11.2
>>> recorded_value("CN1CC[C@]23c4c5ccc(O)c4O[C@H]2c2ncc(-c4ccc(Cl)cc4Cl)cc2C[C@H]3[C@H]1C5")
308

Q) Specify measured Ki for CN1CC[C@]23c4c5ccc(O)c4O[C@H]2c2ncc(-c4ccc(Br)cc4)cc2C[C@H]3[C@H]1C5 .
A) 265

Q) Answer with reported Ki of CN1CC[C@]23c4c5ccc(O)c4O[C@H]2c2ncc(-c4ccc(Cl)cc4)cc2C[C@H]3[C@H]1C5
A) 333

* * *

Test system: mice
Assay: 55° C. tail-flick antinociception test in mice
Conditions: naloxone 10 mg/kg ip, -10 min; yes = greater than 80% reduction in the antinociceptive effect
Reported endpoint: naloxone sensitivity

Some molecules with recorded naloxone sensitivity:
>>> recorded_value("CN1CC[C@]23c4c5ccc(O)c4O[C@H]2c2ncccc2C[C@H]3[C@H]1C5 [7f]")
"no"
>>> recorded_value("CN1CC[C@]23c4c5ccc(O)c4O[C@H]2[C@@H](O)C=C[C@H]3[C@H]1C5 [Morphine, reference compound]")
"yes"
>>> recorded_value("CN1CC[C@]23c4c5ccc(O)c4O[C@H]2c2ncccc2C[C@@]3(O)[C@H]1C5 [7b]")
"yes"
>>> recorded_value("CN1CC[C@]23c4c5ccc(O)c4O[C@H]2c2ncc(-c4ccc(Br)cc4)cc2C[C@H]3[C@H]1C5 [7i]")
"yes"
>>> recorded_value("CN1CC[C@]23c4c5ccc(O)c4O[C@H]2c2ncc(-c4ccccc4)cc2C[C@H]3[C@H]1C5 [7g]")
"yes"

Q) Consider the molecule CN1CC[C@]23c4c5ccc(O)c4O[C@H]2c2ncc(-c4ccccc4)cc2C[C@@]3(O)[C@H]1C5 [7c] . State its measured naloxone sensitivity.
A) no

Q) Quote naloxone sensitivity reported for CN1CC[C@]23c4c5ccc(O)c4O[C@H]2c2ncc(-c4ccc(Cl)cc4)cc2C[C@H]3[C@H]1C5 [7h] please.
A) yes

Q) Look up and state reported naloxone sensitivity for Oc1ccc2c3c1O[C@H]1c4ncc(-c5ccc(Cl)cc5)cc4C[C@@]4(O)[C@@H](C2)N(CC2CC2)CC[C@]314 [2c]
A) yes

* * *

Biological target: opioid δ receptor (Rattus norvegicus)
Construct: Rat membranes are prepared each day using a partially thawed frozen rat brain; from tissue; host or cells: rat brain membranes
Sequence (P33533 whole entry): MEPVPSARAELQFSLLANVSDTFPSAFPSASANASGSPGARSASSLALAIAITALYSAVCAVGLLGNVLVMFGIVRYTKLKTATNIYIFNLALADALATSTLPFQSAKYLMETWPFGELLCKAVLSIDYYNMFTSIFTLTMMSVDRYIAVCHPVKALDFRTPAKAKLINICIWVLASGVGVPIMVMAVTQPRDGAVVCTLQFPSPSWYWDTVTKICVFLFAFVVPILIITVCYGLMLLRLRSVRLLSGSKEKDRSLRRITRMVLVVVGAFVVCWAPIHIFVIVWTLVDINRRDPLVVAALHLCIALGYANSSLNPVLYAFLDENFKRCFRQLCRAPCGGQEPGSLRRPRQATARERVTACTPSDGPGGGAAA
Experiment: Opioid δ receptor binding, [3H]DADLE displacement in rat brain membranes
Overview of reported Ki across a group of molecules:
All answers are understood in nM, so give the number only.

Guide cases for Ki, answers given:
>>> recorded_value("CN1CCC23c4c5ccc(O)c4OC2c2ncc(-c4ccc(Br)cc4)cc2CC3(O)C1C5 (stereo not shown) [7e]")
4
>>> recorded_value("COc1ccc2c3c1OC1c4ncc(-c5ccccc5)cc4CC4(O)C(C2)N(C)CCC314 (stereo not shown) [7n]")
34
>>> recorded_value("CN1CC[C@]23c4c5ccc(O)c4O[C@H]2c2ncc(-c4ccc(Cl)cc4)cc2C[C@@]3(O)[C@H]1C5 [7d]")
3.96

Q) Quote Ki reported for COc1ccc2c3c1OC1c4ncc(-c5ccc(Br)cc5)cc4CC4(O)C(C2)N(C)CCC314 (stereo not shown) [7p] please.
A) 23

* * *

Biological target: UniProt P33535
Sequence (P33535 whole entry): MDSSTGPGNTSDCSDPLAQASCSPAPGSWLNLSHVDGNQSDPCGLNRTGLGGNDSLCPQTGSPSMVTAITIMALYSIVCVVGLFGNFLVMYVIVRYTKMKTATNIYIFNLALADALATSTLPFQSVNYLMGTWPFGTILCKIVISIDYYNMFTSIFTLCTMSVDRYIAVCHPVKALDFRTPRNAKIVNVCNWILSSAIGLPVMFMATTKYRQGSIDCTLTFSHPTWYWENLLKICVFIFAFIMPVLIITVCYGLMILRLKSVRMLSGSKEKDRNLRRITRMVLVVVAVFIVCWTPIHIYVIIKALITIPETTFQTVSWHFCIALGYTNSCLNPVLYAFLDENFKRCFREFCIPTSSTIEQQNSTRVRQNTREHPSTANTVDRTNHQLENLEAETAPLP
Assay: biochemical
Measured Ki of individual entries
The reply should contain only the number, in nM.

// below: answered compounds
>>> recorded_value("COc1ccc2c3c1OC1c4ncc(-c5ccccc5)cc4CC4(O)C(C2)N(C)CCC314 (stereo not drawn)")
894
>>> recorded_value("COc1ccc2c3c1OC1c4ncc(-c5ccc(Br)cc5)cc4CC4(O)C(C2)N(C)CCC314 (stereo not drawn)")
1890

Q) Answer with the recorded Ki of CN1CCC23c4c5ccc(O)c4OC2c2ncc(-c4ccc(Br)cc4)cc2CC3(O)C1C5 (stereo not drawn) only.
A) 196

* * *

Target: opioid κ receptor (Cavia porcellus)
Sequence (P41144 whole entry): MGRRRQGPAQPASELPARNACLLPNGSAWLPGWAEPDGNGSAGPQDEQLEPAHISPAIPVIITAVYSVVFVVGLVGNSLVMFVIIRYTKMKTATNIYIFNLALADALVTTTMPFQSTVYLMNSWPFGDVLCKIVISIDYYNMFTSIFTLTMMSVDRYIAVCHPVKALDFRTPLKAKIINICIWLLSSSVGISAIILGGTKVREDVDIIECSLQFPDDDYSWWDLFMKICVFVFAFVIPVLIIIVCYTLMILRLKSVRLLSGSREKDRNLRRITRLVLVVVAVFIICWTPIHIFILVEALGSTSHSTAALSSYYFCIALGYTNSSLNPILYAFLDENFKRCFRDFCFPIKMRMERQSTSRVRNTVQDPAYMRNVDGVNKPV
Test: biochemical
Reported endpoint: pKi
Reminder that pKi means the negative base-10 logarithm of the concentration expressed in mol/L.

>>> recorded_value("COc1ccc2c3c1OC1c4ncc(-c5ccc(Br)cc5)cc4CC4(O)C(C2)N(C)CCC314 (stereo not drawn)")
5.13

Q) Give pKi for CN1CCC23c4c5ccc(O)c4OC2c2ncc(-c4ccc(Br)cc4)cc2CC3(O)C1C5 (stereo not drawn) tested on opioid κ receptor (Cavia porcellus).
A) 6.36
